system-name: Human VISTA recombinant protein (Sino Biological Inc., Cat. #13482-H08H), biotinylated (UniProt Q9H7M9 33-194, biotinylated using EZ-LINK NHS-PEG4 biotin)
Sequence (Q9H7M9 33-194): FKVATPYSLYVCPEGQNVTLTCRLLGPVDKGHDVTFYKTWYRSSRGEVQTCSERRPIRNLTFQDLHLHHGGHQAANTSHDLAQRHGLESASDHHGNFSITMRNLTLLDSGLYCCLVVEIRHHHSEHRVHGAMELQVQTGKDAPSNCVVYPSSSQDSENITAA
experiment-notes: Octet BLI
measured-property: pKd
In textbook form, pKd equals minus log to base ten of the concentration in mol/L.

[in] Read off the recorded pKd for 20E4-VH1/VL1 (antibody, V domains shown) VH: QVQLVQSGAEVKKPGASVKVSCKASGYTFSSSWVEWVRQAPGQGLEWMGEIFPGSGSTHYNEKFKGRVTMTRDTSISTAYMELSRLRSDDTAVYYCARRPPGWFFDVWGQGTTVTVSS VL: DIQMTQSPSSLSASVGDRVTITCKASQDVSTDVAWYQQKPGKAPKLLIYSASYRYTGVPSRFSGSGSGTDFTLTISSLQPEDFATYYCQQHYSTPWTFGGGTKVEIK
[out] 8.45
